Target: human ether-à-go-go-related gene (hERG) potassium channel (human, UniProt Q12809)
Sequence (Q12809 whole entry, looked up): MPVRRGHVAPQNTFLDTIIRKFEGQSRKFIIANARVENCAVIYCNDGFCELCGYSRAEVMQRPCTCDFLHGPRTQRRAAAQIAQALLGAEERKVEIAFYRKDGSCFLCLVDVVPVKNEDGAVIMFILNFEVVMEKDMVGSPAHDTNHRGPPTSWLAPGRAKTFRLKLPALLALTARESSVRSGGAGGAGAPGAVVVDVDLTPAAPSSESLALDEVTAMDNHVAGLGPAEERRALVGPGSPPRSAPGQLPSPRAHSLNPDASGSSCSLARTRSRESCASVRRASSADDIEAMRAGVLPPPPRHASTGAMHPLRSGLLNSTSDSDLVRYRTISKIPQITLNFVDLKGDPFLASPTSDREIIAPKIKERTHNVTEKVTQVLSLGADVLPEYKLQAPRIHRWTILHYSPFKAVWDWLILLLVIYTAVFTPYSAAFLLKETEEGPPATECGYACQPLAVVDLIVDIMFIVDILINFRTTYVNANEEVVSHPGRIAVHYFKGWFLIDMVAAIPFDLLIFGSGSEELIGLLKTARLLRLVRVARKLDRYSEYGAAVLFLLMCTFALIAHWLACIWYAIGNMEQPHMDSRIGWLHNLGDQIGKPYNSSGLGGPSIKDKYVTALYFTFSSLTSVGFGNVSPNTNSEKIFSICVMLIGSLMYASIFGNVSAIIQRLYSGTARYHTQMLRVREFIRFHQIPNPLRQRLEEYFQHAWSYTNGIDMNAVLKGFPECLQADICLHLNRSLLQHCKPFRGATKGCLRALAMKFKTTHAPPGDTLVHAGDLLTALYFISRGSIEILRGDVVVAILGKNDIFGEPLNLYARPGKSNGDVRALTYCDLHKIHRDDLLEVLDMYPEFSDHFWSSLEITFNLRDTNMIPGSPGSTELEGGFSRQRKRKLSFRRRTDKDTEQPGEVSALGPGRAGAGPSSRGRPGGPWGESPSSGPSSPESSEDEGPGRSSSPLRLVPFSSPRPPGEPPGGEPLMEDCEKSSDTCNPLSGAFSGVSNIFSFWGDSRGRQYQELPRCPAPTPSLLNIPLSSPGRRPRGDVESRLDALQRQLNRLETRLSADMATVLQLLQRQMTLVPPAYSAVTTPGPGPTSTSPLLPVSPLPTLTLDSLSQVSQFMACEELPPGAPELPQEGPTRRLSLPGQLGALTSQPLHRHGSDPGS
Assay: primary screen, population patch clamp on CHO cells stably expressing hERG; higher = less effect of the substance
The whole screen tested about 310,000 compounds, of which about 14,000 (4.5%) showed an effect of 50% or more. The effect is printed as a negative number. This excerpt belongs to a sample that is enriched for strong results.
Assay Metric: hERG current change (%, negative = inhibition) at 10uM (%)
Field: numeric (%). Do not append units.

>  <Compound>
CCOc1ccc2nc(C(=O)N3CCCC(C)C3)sc2c1 (stereo not shown)

>  <Value Reported>
-2.28

$$$$

# get_value(readout='hERG current change (%, negative = inhibition) at 10uM', item= COCOc1cc(O)c(C(=O)/C=C/c2ccccc2)c(OCOC)c1 )
4.67

# get_value(readout='hERG current change (%, negative = inhibition) at 10uM', item= COc1ccc(N2CCN(C3CCCN(Cc4ccc(F)cc4Cl)C3)CC2)cc1 (stereo not shown) )
-35.2

# get_value(readout='hERG current change (%, negative = inhibition) at 10uM', item= CC1CN(S(=O)(=O)c2ccc(C(=O)Nc3sccc3C(N)=O)cc2)CC(C)O1 (stereo not shown) )
-10.8

# get_value(readout='hERG current change (%, negative = inhibition) at 10uM', item= CCOc1cc(CN2CCCC(N3CCN(c4ccc(F)cc4)CC3)C2)ccc1OC (stereo not shown) )
-62.7

# get_value(readout='hERG current change (%, negative = inhibition) at 10uM', item= Cc1cccc(C(=O)N2CCCC(N3CCN(c4cccc(Cl)c4)CC3)C2)n1 (stereo not shown) )
-17.5

# get_value(readout='hERG current change (%, negative = inhibition) at 10uM', item= Cl.OC1(c2ccccc2)CCN(Cc2ccccc2)C2CCCCC21 (stereo not shown) )
-15.6

# get_value(readout='hERG current change (%, negative = inhibition) at 10uM', item= C/C(=N\Nc1ccc(Cl)c(C(=O)O)c1)c1ccccn1 )
5.73

# get_value(readout='hERG current change (%, negative = inhibition) at 10uM', item= COc1ccccc1N1CCN(C2CCCN(Cc3ccc(Cl)cc3)C2)CC1 (stereo not shown) )
-41.1

# get_value(readout='hERG current change (%, negative = inhibition) at 10uM', item= COc1ccc(CN2CCCC(N3CCN(c4cccc(Cl)c4)CC3)C2)cc1OC (stereo not shown) )
-54.1

---

Target: human ether-à-go-go-related gene (hERG) potassium channel (human, UniProt Q12809)
Test: primary screen, population patch clamp on CHO cells stably expressing hERG; higher = less effect of the substance
In all, about 310,000 compounds went through this assay and about 14,000 (4.5%) showed an effect of 50% or more. Effects have a minus sign here. The full list was thinned out, with strong results kept by preference.
Assay Metric: hERG current change (%, negative = inhibition) at 10uM
Write the numeric value and append its unit.

Worked cases, hERG current change (%, negative = inhibition) at 10uM given:
>  <Compound>
CCC(=O)c1ccc(OCC(=O)Nc2ccccc2C(=O)NC2CC2)cc1

>  <Value Reported>
-6.53%

$$$$
>  <Compound>
CN(C(=O)CSc1nc2cc([N+](=O)[O-])ccc2n1-c1ccc(F)cc1)C1CCS(=O)(=O)C1 (centres unmarked)

>  <Value Reported>
2.56%

$$$$
>  <Compound>
O=C(CSc1nc2ccccc2c(=O)n1-c1ccccc1F)NC1CCS(=O)(=O)C1 (centres unmarked)

>  <Value Reported>
-57%

$$$$

# get_value(readout='hERG current change (%, negative = inhibition) at 10uM', item= CSCCC(NC(=O)COc1ccccc1)C(=O)N1CCOCC1 (centres unmarked) )
-9.88%

# get_value(readout='hERG current change (%, negative = inhibition) at 10uM', item= Cc1oc(-c2cccc(Cl)c2)nc1CN(C)C1CCOC1 (centres unmarked) )
0.385%

# get_value(readout='hERG current change (%, negative = inhibition) at 10uM', item= COc1ccc(S(=O)(=O)N2CCN(Cc3cc(OC)c(OC)cc3OC)CC2)cc1.O=C(O)C(=O)O )
-11.5%

# get_value(readout='hERG current change (%, negative = inhibition) at 10uM', item= Cn1c(N2C(=O)CC(Cc3ccccc3)C2=O)nc2ccccc21 (centres unmarked) )
-17.6%

# get_value(readout='hERG current change (%, negative = inhibition) at 10uM', item= COc1ccc(CN2CCN(S(=O)(=O)c3ccccc3)CC2)c(OC)c1.O=C(O)C(=O)O )
-63.5%

# get_value(readout='hERG current change (%, negative = inhibition) at 10uM', item= CSc1ccc(-c2nc(CN(C)C3CCOC3)c(C)o2)cc1 (centres unmarked) )
-31.4%

# get_value(readout='hERG current change (%, negative = inhibition) at 10uM', item= O=C(NCc1ccc(Cl)cc1)C1C2C=CC3(CN(Cc4cccnc4)C(=O)C13)O2 (centres unmarked) )
-7.1%

# get_value(readout='hERG current change (%, negative = inhibition) at 10uM', item= COc1ccc(OC)c(CN2CCN(S(=O)(=O)c3ccccc3)CC2)c1 )
-79.2%

# get_value(readout='hERG current change (%, negative = inhibition) at 10uM', item= O=C(CSc1nc2ccccc2c(=O)n1-c1ccccc1Cl)NC1CCS(=O)(=O)C1 (centres unmarked) )
6.55%

---

The reader will find reported hERG current change (%, negative = inhibition) at 10uM values listed item by item below.
Target: human ether-à-go-go-related gene (hERG) potassium channel (human, UniProt Q12809)
Assay: primary screen, population patch clamp on CHO cells stably expressing hERG; higher = less effect of the substance
Protocol: Briefly, Chinese hamster ovary (CHO) cells stably expressing the hERG channel were dislodged from tissue culture flasks and dispensed into PPC plates. […] During the recording, background leak currents were estimated by a 100 ms step to -80 mV from an initial holding potential of -70 mV and subtracted from the subsequent current measurement. The campaign was conducted in two phases using slight differences in recording protocol. […]
The whole screen tested about 310,000 compounds, of which about 14,000 (4.5%) showed an effect of 50% or more. The effect is printed as a negative number. The sample holds strong results, similar compounds and a random draw of the others, so the mix is not that of the screen.

Worked cases, hERG current change (%, negative = inhibition) at 10uM given:
>  <Chemical Structure>
N#CCCN(C(=O)Nc1ccc(Cl)c(Cl)c1)c1ccccc1

>  <Target Desc>
human ether-à-go-go-related gene (hERG) potassium channel (human, UniProt Q12809);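 also: peak tail current of the secondary pulse compared with the same well before compound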

>  <Value Reported>
-0.506%

$$$$
>  <Chemical Structure>
Cc1cccc(NC(=O)C2CCN(C(=O)c3ccc(F)cc3)CC2)n1

>  <Target Desc>
human ether-à-go-go-related gene (hERG) potassium channel (human, UniProt Q12809);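 also: peak tail current of the secondary pulse compared with the same well before compound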

>  <Value Reported>
-0.274%

$$$$
>  <Chemical Structure>
Cc1cc(C)cc(C(=O)OCC(=O)Nc2ncccn2)c1

>  <Target Desc>
human ether-à-go-go-related gene (hERG) potassium channel (human, UniProt Q12809);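 also: peak tail current of the secondary pulse compared with the same well before compound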

>  <Value Reported>
-0.75%

$$$$

# get_value(readout='hERG current change (%, negative = inhibition) at 10uM', item= Cc1cc(N)n(-c2nc(-c3cccnc3)nc3ccccc23)n1 )
-27.4%

# get_value(readout='hERG current change (%, negative = inhibition) at 10uM', item= Cc1cc(Br)ccc1NC(=O)CNC(=O)CSc1n[nH]c(N)n1 )
18.5%

---

Biological target: human ether-à-go-go-related gene (hERG) potassium channel (human);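 also: peak tail current of the secondary pulse compared with the same well before compound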
Test: primary screen, population patch clamp on CHO cells stably expressing hERG; higher = less effect of the substance
Screen size: about 310,000 compounds; about 14,000 (4.5%) showed an effect of 50% or more. Effects have a minus sign here. For the sample, strong results were picked, then their nearest neighbours and some compounds at random.
The reader will find reported hERG current change (%, negative = inhibition) at 10uM values listed item by item below.
Field: numeric (%). Do not append units.

Worked cases, hERG current change (%, negative = inhibition) at 10uM given:
>  <Chemical Structure>
Cc1cccn2c(=O)c(/C=C(\C#N)C(=O)NCc3ccco3)c(N3CCC(C(N)=O)CC3)nc12

>  <Value Reported>
-43

$$$$
>  <Chemical Structure>
CCOC(=O)C1CCN(c2nc3c(C)cccn3c(=O)c2/C=C(\C#N)S(=O)(=O)c2ccccc2)CC1

>  <Value Reported>
-18.1

$$$$
>  <Chemical Structure>
CCN(C(=O)C1=COCCO1)c1nc2c(C)cccc2s1

>  <Value Reported>
-17.2

$$$$
>  <Chemical Structure>
CCN(CC)CCN(C(=O)C1=COCCO1)c1nc2cc(C)cc(C)c2s1.Cl

>  <Value Reported>
-69

$$$$

Next molecule, hERG current change (%, negative = inhibition) at 10uM to be filled in.
# get_value(readout='hERG current change (%, negative = inhibition) at 10uM', item= CCN1CCN(c2nc3c(C)cccn3c(=O)c2/C=C(\C#N)S(=O)(=O)c2ccc(Cl)cc2)CC1 )
-44.9
